- assayProtocol: Compound cytotoxicity, XTT-based colorimetric assay
- Format: cell-based
- conditionInfo: human; uninfected MT2 cells, day 4, XTT; read-out: CC50
- Method: Compound cytotoxicity and the corresponding CC50 values were determined using the same protocol as described in the antiviral assay except that uninfected cells were used. Cytotoxicity was assessed on day 4 in uninfected MT2 cells by using an XTT (2,3-bis[2-Methoxy-4-nitro-5-sulfophenyl]-2H-tetrazolium-5-carboxyanilide inner salt)-based colorimetric assay (Sigma-Aldrich, St Louis, Mo).
For each of the compounds below, state its CC50 at 4 days.

So, CS(=O)(=O)Nc1nn(CCN2C[C@H](F)C[C@H](F)C2)c2c(-n3c([C@H](Cc4cc(F)cc(F)c4)NC(=O)Cn4nc(C(F)F)c5c4C(F)(F)[C@@H]4C[C@H]54)nc4nc(C5CCC(F)(F)CC5)cc(CF)c4c3=O)ccc(Cl)c12 (atropisomer, axis not shown; (P)) ? Its CC50 at 4 days was > 20 nM

So, Cc1cc(C2(F)CCC(F)(F)CC2)nc2nc([C@H](Cc3cc(F)cc(F)c3)NC(=O)Cn3nc(C4CC4)c4c3C[C@@H]3C[C@H]43)n(-c3ccc(Cl)c4c(NS(C)(=O)=O)nn(CCN5C[C@H](C)OC(C)(C)C5)c34)c(=O)c12 (atropisomer, axis not shown; (P)) ? Its CC50 at 4 days was > 20 nM
